- tested on: Human recombinant MMP-9 (Homo sapiens, UniProt P14780)
- Construct: made in house; host or cells: MMP-9-transfected HT1080 cells (spent media)
- Sequence (P14780 107-707 limits assumed): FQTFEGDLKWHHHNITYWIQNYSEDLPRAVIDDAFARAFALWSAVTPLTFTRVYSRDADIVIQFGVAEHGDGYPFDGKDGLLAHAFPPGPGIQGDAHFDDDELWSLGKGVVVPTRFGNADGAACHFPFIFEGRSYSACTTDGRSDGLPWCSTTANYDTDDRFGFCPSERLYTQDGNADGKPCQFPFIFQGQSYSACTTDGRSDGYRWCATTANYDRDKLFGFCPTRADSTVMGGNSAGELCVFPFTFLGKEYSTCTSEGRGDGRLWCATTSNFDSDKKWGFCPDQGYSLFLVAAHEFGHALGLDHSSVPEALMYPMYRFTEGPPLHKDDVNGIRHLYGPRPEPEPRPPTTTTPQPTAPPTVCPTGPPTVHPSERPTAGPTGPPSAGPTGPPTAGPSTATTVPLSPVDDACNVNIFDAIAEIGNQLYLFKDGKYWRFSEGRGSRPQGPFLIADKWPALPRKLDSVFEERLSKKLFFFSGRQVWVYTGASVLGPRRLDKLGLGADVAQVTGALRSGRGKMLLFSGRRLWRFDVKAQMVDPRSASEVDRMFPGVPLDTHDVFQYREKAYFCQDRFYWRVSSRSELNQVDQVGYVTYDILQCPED
- assay notes: In vitro MMP inhibition analysis (fluorogenic peptide substrate cleavage), Ki
- Type: biochemical
- condition: Table 1
Ki vs 0.4 nM: less than gives Satisfied; not less than gives Not satisfied.

Completed entries (count: 5):
COCCN1CCC(C(=O)NO)(S(=O)(=O)c2ccc(-c3cnc(CCC(C)(F)F)cn3)cc2)CC1 :: Satisfied
CCN1CCC(C(=O)NO)(S(=O)(=O)c2ccc(-c3cnc(CCC(C)(F)F)cn3)cc2)CC1 :: Not satisfied
O=C(NO)C1(S(=O)(=O)c2ccc(-c3ccc(CCC(F)(F)C(F)(F)F)cn3)cc2)CCOCC1 :: Satisfied
CC(F)(F)CCc1cnc(-c2ccc(S(=O)(=O)C3(C(=O)NO)CCOCC3)cc2)cn1 :: Not satisfied
O=C(NO)C1(S(=O)(=O)c2ccc(-c3cnc(CCC(F)(F)C(F)(F)F)cn3)cc2)CCOCC1 :: Satisfied

Query: Ki under 0.4 nM? Item: `O=C(NO)C1(S(=O)(=O)c2ccc(-c3cnc(CCCC(F)(F)F)cn3)cc2)CCOCC1`
Response: Not satisfied

Query: Lab note: confirm whether the reported Ki for this molecule is below 0.4 nM, equality not counting. molecule: `O=C(NO)C1(S(=O)(=O)c2ccc(-c3ccc(CCCC(F)(F)F)cc3)cc2)CCN(C2CC2)CC1`
Response: Not satisfied

Query: Record `O=C(NO)C1(S(=O)(=O)c2ccc(-c3ccc(CCC(F)(F)C(F)(F)F)cc3)cc2)CCN(C2CC2)CC1` : is its Ki strictly below 0.4 nM?
Response: Not satisfied

---

- tested on: Human recombinant MMP-1 (Homo sapiens)
- Construct: made in house; host or cells: MMP-1-transfected HT-1080 cells (spent media)
- Sequence (P03956 100-469): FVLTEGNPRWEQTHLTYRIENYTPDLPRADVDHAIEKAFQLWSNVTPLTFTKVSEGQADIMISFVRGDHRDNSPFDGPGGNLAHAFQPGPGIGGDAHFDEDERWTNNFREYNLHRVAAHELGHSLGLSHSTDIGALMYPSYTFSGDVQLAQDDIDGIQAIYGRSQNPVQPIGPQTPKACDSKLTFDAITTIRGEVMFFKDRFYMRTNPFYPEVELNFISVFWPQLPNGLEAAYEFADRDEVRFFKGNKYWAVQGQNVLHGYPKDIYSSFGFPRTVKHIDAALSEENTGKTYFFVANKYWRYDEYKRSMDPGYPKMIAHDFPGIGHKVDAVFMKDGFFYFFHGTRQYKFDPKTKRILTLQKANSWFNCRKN
- assay notes: In vitro MMP inhibition analysis (fluorogenic peptide substrate cleavage), Ki
- Format: biochemical
- condition: Table 2
Ki: recorded values

CCCCOc1ccc(-c2ccc(S(=O)(=O)C3(C(=O)NO)CCOCC3)cc2)cc1C(F)(F)F :: > 10 µM
CCN1CCC(C(=O)NO)(S(=O)(=O)c2ccc(-c3ccc(OCCOC)cc3)cc2)CC1 :: 7.36 µM
CCN1CCC(C(=O)NO)(S(=O)(=O)c2ccc(-c3ccc(OCCCCO)cc3)cc2)CC1 :: 2.17 µM
O=C(NO)C1(S(=O)(=O)c2ccc(-c3cscc3-c3ccc(F)cc3)cc2)CCOCC1 :: > 10 µM
O=C(NO)C1(S(=O)(=O)c2ccc(-c3ccc(-c4ccccc4)cn3)cc2)CCN(C2CC2)CC1 :: 0.391 µM
CN(C)C(=O)c1ccc2cc(-c3ccc(S(=O)(=O)C4(C(=O)NO)CCOCC4)cc3)ccc2c1 :: 1.86 µM

Just so you know, measured Ki for `CCOCCOc1ccc(-c2ccc(S(=O)(=O)C3(C(=O)NO)CCN(CCOC)CC3)cc2)cc1` came out at 4.9 µM

For record `O=C(NO)C1(S(=O)(=O)c2ccc(-c3cnc(N4CCCCC4)cn3)cc2)CCOCC1` the listed Ki is > 10 µM

Sure, the documented Ki for `CC(C)CCc1cnc(-c2ccc(S(=O)(=O)C3(C(=O)NO)CCOCC3)cc2)cn1` is > 10 µM

Briefly, Ki measured for `CCCCc1nc(-c2ccc(S(=O)(=O)C3(C(=O)NO)CCOCC3)cc2)no1` : > 10 µM

response.value for `CCN1CCC(C(=O)NO)(S(=O)(=O)c2ccc(-c3ccc(-c4csc(C)n4)cc3)cc2)CC1` (field: Ki) = 3.86 µM
